assay readout: melting point

Name the recorded melting point of the item C=C1COc2ccc(C(C)=O)cc2C(S(=O)(=O)c2ccccc2)C1 (stereo not shown) [Example 13] in your answer.
124 to 125 °C

Name the recorded melting point of the item C=C1C=Cc2cc(C(=O)Nc3ccccc3)ccc2OC1 [Example 41] in your answer.
139 °C

Name the recorded melting point of the item CC(=O)c1ccc2c(c1)CCC(=O)CO2 [Example 16] in your answer.
80 to 82 °C

Name the recorded melting point of the item C=C1C=Cc2cc(C(=O)O)ccc2OC1 [Example 40] in your answer.
188 °C

Name the recorded melting point of the item COC(=O)c1ccc2c(c1)C=CC(=C(Cl)Cl)CO2 [Example 54] in your answer.
119 to 121 °C

Name the recorded melting point of the item C=C1COc2ccc(C(=O)OC)cc2C(Cc2ccccc2)(S(=O)(=O)c2ccccc2)C1 (stereo not shown) [Example 6] in your answer.
164 to 165 °C

Name the recorded melting point of the item O=C(O)c1ccc2c(c1)C=CC(=CCl)CO2 [Example 63] in your answer.
> 260 °C

Name the recorded melting point of the item C=C1COc2ccc(C(C)=O)cc2C(Cc2ccccc2)(S(=O)(=O)c2ccccc2)C1 (stereo not shown) [Example 18] in your answer.
131 to 132 °C

Name the recorded melting point of the item COC(=O)c1ccc2c(c1)C=CC(=CCl)CO2 [Example 32] in your answer.
72 to 77 °C

Name the recorded melting point of the item COC(=O)c1ccc2c(c1)C=CC(=O)CO2 [Example 31] in your answer.
98 °C
